Test: Clast in po dosed human […] and reporting drug-associated hyperesthesia on day 12 dosed at 200 mg daily for 3 days followed by weekly dose of 200 mg for 6 months
Assay type: ADME, organism-based
Conditions: in vivo, read-out: Clast
ENDPOINT: concentration at 72 h (ng/mL)
Give your result in ng/mL as a bare value.

Look up concentration at 72 h: COc1cc(C)c2c(Oc3cccc(C(F)(F)F)c3)c(OC)cc(NC(C)CCCN)c2n1 (stereo unspecified) 283

====

Assay: Apparent clearance with respect to the bioavailability in human at 600 mg cumulative dose with vomiting and/or nausea reported on day 3 at 200 mg daily for 3 days followed by weekly dose of 200 mg for 6 months, po
Format: ADME, organism-based
Settings: in vivo
ENDPOINT: CL/F (mL/min/kg)
Kindly provide the numeric value in mL/min/kg only, without the unit symbol.

So what does the record say about CL/F for COc1cc(C)c2c(Oc3cccc(C(F)(F)F)c3)c(OC)cc(NC(C)CCCN)c2n1 (stereo unspecified) [TAFENOQUINE] ? 1.28
